Tested on: SK-MEL-2 melanoma
assay details: NCI-60 one-dose screen, 48 h
assay setup: 10 µM unless noted
This is part of a sample that, as a whole, favours compounds with a hit. Of some 83,000 tested, about 20% had one in any assay. Calls of active or inactive are those of the source. Rule for the calls: active = growth percent below 10; inactive = the rest.
Valid outcomes are listed here; reply with one: class 1 = active, class 0 = inactive

Exam item: Tell me the recorded outcome of this test for CCN(CC)CCCC(Nc1c2ccc(Cl)cc2nc2ccc(OC)cc12)c1ccncc1 (centres undefined) .
Marked response: class 0

Exam item: Now consider Nc1ncc(-c2ccc3ncnc(N4CCc5cc(F)c(Cl)cc54)c3c2)cc1C=O .
Marked response: class 1

Exam item: Now consider CN1C(=O)N(C)C2C1NN=c1s/c(=C\c3ccc(F)cc3)c(=O)n12 (centres undefined) .
Marked response: class 0

Exam item: Now consider CN1CCN(CC(=O)N(C)c2ccc(N=C(c3ccccc3)c3c(O)[nH]c4ccc([N+](=O)[O-])cc34)cc2)CC1 .
Marked response: class 0

Exam item: Now consider CCCCCN(CCCCC)CC(O)c1c(Cl)ccc2ccccc12 (centres undefined) .
Marked response: class 0

Exam item: Now consider CN1CCN(Cc2ccc(NC(=O)c3cncc(C#Cc4cnc(N)c5ncccc45)c3)cc2Cl)CC1 .
Marked response: class 0

Exam item: Now consider COc1cc(OCc2cccc(-c3ccccc3)c2C)cc(OC)c1CN1CCCCC1C(=O)NCCOCCOCCN (centres undefined) .
Marked response: class 0

Exam item: Now consider CC(C)=CC(=O)C1C(=O)c2ccccc2C1=O .
Marked response: class 0

Exam item: Now consider CN1/C(=C/C=C/c2n(Cc3ccc4ccccc4c3)c(Cl)c(Cl)[n+]2Cc2ccc3ccccc3c2)Oc2ccccc21 .
Marked response: class 1

Exam item: Now consider CCCC1Cc2cc(-n3nc(C)c4c3CC(C)(C)CC4=O)cc(NC3CCC(O)CC3)c2C(=O)N1 (centres undefined) .
Marked response: class 0

Exam item: Now consider COc1ccc(-n2c(=O)n(-c3ccc(-c4nc5ccc(F)cc5s4)cc3)c(=O)c3cccnc32)cc1 .
Marked response: class 0

Exam item: Now consider COc1cc(C2CC(c3cccc(Nc4ccncc4)c3)=Nc3c(N)ncnc3N2)cc(OC)c1OC (centres undefined) .
Marked response: class 0

Exam item: Now consider Oc1ccc(Cc2ccc(O)c3ncccc23)c2cccnc12 .
Marked response: class 1

Exam item: Now consider Cc1cc2c(C(C)C)c(O)c(O)c(/C=N/O)c2c(O)c1-c1c(C)cc2c(C(C)C)c(O)c(O)c(/C=N/O)c2c1O .
Marked response: class 1

Exam item: Now consider O=C(Nc1ncc(Cc2ccc(Cl)cc2)s1)C1=NCCCCN1 .
Marked response: class 0

Exam item: Now consider C/C=C(/C)C(=O)O[C@@H]1CC(C)(C)CC2C34OC(=O)[C@@]21CC[C@@]3(C)[C@]1(C)CCC2C(C)(C)C(=O)CC[C@]2(C)C1C[C@@H]4O (some centres undefined) .
Marked response: class 0

Exam item: Now consider C=C(c1ccc(OC)c(/C=C/C(=O)c2cc(OC)c(OC)c(OC)c2)c1)c1cc(OC)c(OC)c(OC)c1 .
Marked response: class 1

Exam item: Now consider O=C(O)c1cc2ccccc2s1 .
Marked response: class 0

Exam item: Now consider Oc1cccc(-c2nc(-c3n[nH]c(=S)n3-c3ccccc3)cc3c2[nH]c2ccccc23)c1 .
Marked response: class 1

Exam item: Now consider O=C(/C=C/c1ccco1)Nc1ncc(Cc2ccc(F)cc2)s1 .
Marked response: class 0

Exam item: Now consider O=C(Nc1ncc(Cc2ccccc2Cl)s1)c1ccc2c(c1)OCCO2 .
Marked response: class 0

Exam item: Now consider COc1cc2c(c(OC)c1OC)CCC(c1cccc(C(=O)Nc3ccccc3Br)c1)O2 (centres undefined) .
Marked response: class 0

Exam item: Now consider COc1ccc(C2=NN3C(C2)c2cc(Br)ccc2OC3c2ccncc2)cc1 (centres undefined) .
Marked response: class 0

Exam item: Now consider CN(C)C(=S)NN=C(c1ccccn1)c1ccccn1 .
Marked response: class 0

Exam item: Now consider c1ccc(Cn2cc3c(c2)-c2nc(Nc4ccccc4)ncc2CC3)cc1 .
Marked response: class 0

Exam item: Now consider FC(F)(F)c1cccc(-c2nnn(Cc3cc(-c4cccc(Cl)c4)no3)n2)c1 .
Marked response: class 0

Exam item: Now consider Cc1cc(N2CCOCC2)nc(N(CCCNc2ccnc3cc(Cl)ccc23)Cc2ccc3c(c2)OCO3)n1 .
Marked response: class 1

Exam item: Now consider CCCCCCCCOC(=O)c1c(C)[nH]c(/C=C2\N=C(c3ccc[nH]3)C=C2OC)c1C .
Marked response: class 1

Exam item: Now consider CC(C)(C)n1cc(-c2ccnc(NCCNS(=O)(=O)c3cccc4ccccc34)c2)c(-c2cccc(O)c2)n1 .
Marked response: class 0

Exam item: Now consider Cc1[nH]c(C2CC(c3ccc(C(F)(F)F)c(F)c3)=NN2C)c(C)c1C(=O)NCC(F)(F)F (centres undefined) .
Marked response: class 0

Exam item: Now consider Cc1c(Cl)cccc1NC(=O)c1sc2nc3c(cc2c1N)CCCC3 .
Marked response: class 0

Exam item: Now consider COc1ccc(S(=O)(=O)N(C)c2oc(-c3ccc(Cl)cc3)nc2C#N)cc1 .
Marked response: class 0

Exam item: Now consider COc1cc(CNC(=O)CCCC/C=C/C(C)C)ccc1OCc1cn(-c2ccc(C(F)(F)F)cc2)nn1 .
Marked response: class 0

Exam item: Now consider COc1ccc(NC(=O)CSc2oc(-c3ccccc3)nc2S(=O)(=O)c2ccc(Cl)cc2)c(OC)c1 .
Marked response: class 0

Exam item: Now consider O=C1C(c2c(O)[nH]c3ncccc23)=Nc2ccccc21 .
Marked response: class 0

Exam item: Now consider CCOc1cc(\C=N/N=C(N)/C(N)=N\N=C/c2ccc(O)c(OCC)c2)ccc1O .
Marked response: class 0

Exam item: Now consider C=CCNc1ccc2c3c(cccc13)C(=O)N(CC=C)C2=O .
Marked response: class 0

Exam item: Now consider CCOc1ccccc1NC(=O)CCC(=O)OC .
Marked response: class 0

Exam item: Now consider O=C(OCc1ccc2c(Br)cc(Br)c(O)c2n1)N1CCN(C(=O)c2cc3ccccc3[nH]2)CC1 .
Marked response: class 0
